Source listed as PubChem BioAssay AID2314.

compounds and their reported max response
experiment: Cycloheximide Counterscreen for Small Molecule Inhibitors of Shiga Toxin; conditions: cell reporter, cycloheximide protein synthesis inhibition counterscreen; hits give high values; note: read at 38.3 µM for the half of the compounds with a filed dose; 0% is about no effect
Among all 300,000 compounds or so, about 37,000 (12%) were called active. The full list was thinned out, with actives kept by preference.
Numbers only here, please. The scale is %.

As a guide, the following entries are already answered.
INSERT INTO assay_data (compound, property_measured, result) VALUES
  ('CC(=O)c1ccc(NC(=O)c2ccc3c(Cl)c4c(nc3c2)CCCC4)cc1', 'max response', -0.107),
  ('O=S(=O)(Nc1cccc(Oc2ccc(Cl)cc2)n1)c1ccc(F)cc1', 'max response', -1.16),
  ('COCCCN1C(=O)c2ccc(C(=O)OCC(=O)NCc3ccccc3OC)cc2C1=O', 'max response', -6.08);

Lab note: measured max response of O=C(Nc1ccc2c(c1)OCO2)C1CC(c2c(F)cccc2Cl)=NO1 (centres undefined) was 31.8

----------
experiment: Cycloheximide Counterscreen for Small Molecule Inhibitors of Shiga Toxin; conditions: cell reporter, cycloheximide protein synthesis inhibition counterscreen; note: read at 38.3 µM for the half of the compounds with a filed dose; 0% is about no effect
The whole screen tested about 300,000 compounds, of which about 37,000 (12%) were called active. No stated cut-off is given here; in the data, active means max response mostly above about 13% (no sharp cut-off); inactive means mostly below about 14%. The full list was thinned out, with actives kept by preference.
Pick one and only one: active, inactive

Solved cases (8 shown):
INSERT INTO assay_data (compound, class_label) VALUES
  ('Brc1ccc(-c2nn[nH]n2)cc1', 'inactive'),
  ('O=c1c([N+](=O)[O-])cccn1Cc1ccc(F)cc1Cl', 'inactive'),
  ('CN1C(=O)C(CC(=O)Nc2ccccc2)S/C1=N/c1nccs1 (stereo not given)', 'inactive'),
  ('c1cc(-c2nn[nH]n2)ccc1CN1CCCCC1', 'inactive'),
  ('Cc1nnc(N/N=C/c2cccs2)[nH]c1=O', 'inactive'),
  ('CCCCCN1CC(O)=C(c2nc(-c3ccc(Cl)cc3)cs2)C1=N', 'inactive'),
  ('COc1ccccc1N(C)C(=O)c1cc(S(=O)(=O)N2CCc3ccccc32)cn1C', 'inactive'),
  ('CC(C)c1ccc(-c2nn[nH]n2)cc1', 'active');

Returns: the outcome recorded for "Cc1noc(C)c1S(=O)(=O)Nc1ccc(C(=O)N2CCN(c3ccc(F)cc3)CC2)cc1" in this assay. inactive

Give the logged outcome of this assay for the following compound: "COc1cc(C(=S)N2CCOCC2)ccc1O" inactive

Entry "CC(C)c1ccc(Nc2ncccc2C#N)cc1" : call = ? active

State the result this test recorded for "Cc1ccccc1CSc1nnc(-c2ccccc2)c(=O)[nH]1" . inactive

Hi, do you know how "COc1ccc(OC)c(Nc2nc3ccccc3n3cnnc23)c1" came out in this test? inactive

----------
experiment: Cycloheximide Counterscreen for Small Molecule Inhibitors of Shiga Toxin; conditions: cell reporter, cycloheximide protein synthesis inhibition counterscreen; note: read at 38.3 µM for the half of the compounds with a filed dose; 0% is about no effect
The campaign covered roughly 300,000 compounds. About 37,000 (12%) were called active. Rule as the data show it: active = max response mostly above about 13% (no sharp cut-off); inactive = mostly below about 14%. What follows is part of a selection rich in actives, with near analogues and random picks from the rest.
Just give me one of these, please: 1.0 (active), 0.0 (inactive)

Worked examples follow.
INSERT INTO assay_data (molecule, class_label) VALUES
  ('O=C(Nc1ccnc(-c2ccncc2)n1)c1cccs1', 0.0),
  ('COc1ccc(NC(=O)CC2C(=O)NC3CCCCC3N2C(=O)c2ccc(F)cc2)cc1 (stereo unspecified)', 0.0),
  ('Cc1ccc(SCCN2C(=O)NC(C)(C)C2=O)cc1', 0.0),
  ('O=C(COC(=O)c1ccc(O)cc1)Nc1nccs1', 1.0),
  ('CC(=O)c1cnc(SCCN2C(=O)c3ccccc3C2=O)nc1C', 0.0);

Recorded call for "COc1cccc(C(=O)Nc2ccc(NC(=O)c3ccco3)cn2)c1" ? 1.0
